assayed-target: D(1A) dopamine receptor (Homo sapiens, UniProt P21728); note: assay procedure not described here
Sequence (P21728 whole entry): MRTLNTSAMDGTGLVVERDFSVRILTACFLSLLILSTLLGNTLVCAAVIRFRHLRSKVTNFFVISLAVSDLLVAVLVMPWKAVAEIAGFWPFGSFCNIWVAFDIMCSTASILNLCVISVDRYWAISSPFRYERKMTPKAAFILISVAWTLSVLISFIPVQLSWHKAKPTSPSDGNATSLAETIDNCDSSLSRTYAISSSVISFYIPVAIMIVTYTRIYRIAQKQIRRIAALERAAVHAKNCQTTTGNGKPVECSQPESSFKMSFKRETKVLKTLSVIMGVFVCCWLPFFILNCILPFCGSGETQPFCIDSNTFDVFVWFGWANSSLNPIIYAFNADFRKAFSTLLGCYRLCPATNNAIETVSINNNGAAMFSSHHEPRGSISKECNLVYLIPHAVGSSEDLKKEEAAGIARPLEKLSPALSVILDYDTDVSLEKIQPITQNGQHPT
Format: functional, cell-based
The compounds listed here are annotated with their AC50.

Hi! What's the reported AC50 for CC(C)(C)NCC(O)COc1ccccc1C#N (configuration not stated) [BUNITROLOL] on D(1A) dopamine receptor (Homo sapiens, UniProt P21728)?
> 30 µM

Ok, now O=C1CC2(CCCC2)CC(=O)N1CCCCN1CCN(c2ncccn2)CC1 [BUSPIRONE]
> 10 µM

Ok, now CC(C)(C)NCC(O)COc1cccc2c1CC(O)C(O)C2 (configuration not stated) [NADOLOL]
> 10 µM

Ok, now CCC1(c2ccccc2)C(=O)NCNC1=O [PRIMIDONE]
> 10 µM

Ok, now CN(C)CCOCC(=O)NC12CC3CC(CC(C3)C1)C2 [TROMANTADINE]
> 30 µM

----------
The compounds listed here are annotated with their AC50.
assayed-target: Histamine H1 receptor (Homo sapiens, UniProt P35367); note: assay procedure not described here
Sequence (P35367 whole entry): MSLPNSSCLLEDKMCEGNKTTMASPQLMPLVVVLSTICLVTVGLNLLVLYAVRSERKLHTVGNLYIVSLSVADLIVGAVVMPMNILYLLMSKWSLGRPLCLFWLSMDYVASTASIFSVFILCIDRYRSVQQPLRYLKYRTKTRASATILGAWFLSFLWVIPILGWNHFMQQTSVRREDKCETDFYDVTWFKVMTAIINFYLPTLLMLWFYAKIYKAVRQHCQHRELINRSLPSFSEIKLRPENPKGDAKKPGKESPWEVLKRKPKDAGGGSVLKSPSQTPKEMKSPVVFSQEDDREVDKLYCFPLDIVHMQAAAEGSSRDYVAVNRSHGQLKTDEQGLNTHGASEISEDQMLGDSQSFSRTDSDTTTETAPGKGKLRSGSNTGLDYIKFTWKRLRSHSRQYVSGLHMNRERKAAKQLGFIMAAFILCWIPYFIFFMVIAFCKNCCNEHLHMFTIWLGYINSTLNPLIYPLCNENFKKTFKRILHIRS

[[record]]
entry_smiles = "CC(=O)Oc1cccc2c1C(=O)c1c(OC(C)=O)cc(C(=O)O)cc1C2=O"
obs_value = "> 30 µM"

[[record]]
entry_smiles = "CN1C(=O)CN=C(c2ccccc2F)c2cc([N+](=O)[O-])ccc21"
obs_value = "> 10 µM"

[[record]]
entry_smiles = "CC[N+](CC)(CCNC(=O)C(=O)NCC[N+](CC)(CC)Cc1ccccc1Cl)Cc1ccccc1Cl"
obs_value = "> 30 µM"

[[record]]
entry_smiles = "CCCCCCCC(=O)CC[C@@H]1[C@@H](C/C=C\\CCCC(=O)O)[C@@H](O)C[C@H]1O"
obs_value = "> 30 µM"


Now take the following compound into account.
Hi! What's the reported AC50 for O=C(O)c1ccc2nc(-c3cc(Cl)cc(Cl)c3)oc2c1 on Histamine H1 receptor (Homo sapiens, UniProt P35367)?
> 30 µM

----------
The compounds listed here are annotated with their AC50.
assayed-target: Cannabinoid receptor 1 (Homo sapiens); note: assay procedure not described here
Sequence (P21554 whole entry): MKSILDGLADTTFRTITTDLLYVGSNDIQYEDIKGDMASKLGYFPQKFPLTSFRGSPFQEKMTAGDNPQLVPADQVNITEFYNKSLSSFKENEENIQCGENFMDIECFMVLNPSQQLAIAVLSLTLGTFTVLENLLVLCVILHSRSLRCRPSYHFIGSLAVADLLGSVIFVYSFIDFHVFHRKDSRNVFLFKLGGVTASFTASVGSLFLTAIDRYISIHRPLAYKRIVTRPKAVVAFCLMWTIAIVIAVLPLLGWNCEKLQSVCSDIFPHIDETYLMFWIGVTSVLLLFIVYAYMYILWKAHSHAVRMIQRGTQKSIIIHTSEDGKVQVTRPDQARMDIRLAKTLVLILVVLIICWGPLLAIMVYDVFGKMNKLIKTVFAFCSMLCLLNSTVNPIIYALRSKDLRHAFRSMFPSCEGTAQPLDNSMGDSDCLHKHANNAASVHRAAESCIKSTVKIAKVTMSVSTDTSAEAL
Type: functional, cell-based

[[record]]
compound = "COc1ccc(-c2cc(=S)ss2)cc1"
parameter = "AC50"
obs_value = "> 30 µM"

[[record]]
compound = "C[C@]12CCC(=O)C=C1C=C[C@@H]1[C@@H]2CC[C@@]2(C)[C@H]1CC[C@@]21CCC(=O)O1"
parameter = "AC50"
obs_value = "> 30 µM"

[[record]]
compound = "CC(C)(CO)c1cc2cc(NC(=O)C3(c4ccc5c(c4)OC(F)(F)O5)CC3)c(F)cc2n1C[C@@H](O)CO"
parameter = "AC50"
obs_value = "> 30 µM"

[[record]]
compound = "Nc1c2c(nc3ccccc13)CCCC2O (stereo not given)"
parameter = "AC50"
obs_value = "> 30 µM"


Now take the following compound into account.
Hi! What's the reported AC50 for COc1cc2c(cc1OC)C1CC(=O)C(CC(C)C)CN1CC2 (stereo not given) on Cannabinoid receptor 1 (Homo sapiens)?
> 30 µM

----------
The molecules listed here are annotated with their AC50.
assayed-target: 3',5'-cyclic-AMP phosphodiesterase 4D (Homo sapiens, UniProt Q08499); note: assay procedure not described here
Sequence (Q08499 whole entry): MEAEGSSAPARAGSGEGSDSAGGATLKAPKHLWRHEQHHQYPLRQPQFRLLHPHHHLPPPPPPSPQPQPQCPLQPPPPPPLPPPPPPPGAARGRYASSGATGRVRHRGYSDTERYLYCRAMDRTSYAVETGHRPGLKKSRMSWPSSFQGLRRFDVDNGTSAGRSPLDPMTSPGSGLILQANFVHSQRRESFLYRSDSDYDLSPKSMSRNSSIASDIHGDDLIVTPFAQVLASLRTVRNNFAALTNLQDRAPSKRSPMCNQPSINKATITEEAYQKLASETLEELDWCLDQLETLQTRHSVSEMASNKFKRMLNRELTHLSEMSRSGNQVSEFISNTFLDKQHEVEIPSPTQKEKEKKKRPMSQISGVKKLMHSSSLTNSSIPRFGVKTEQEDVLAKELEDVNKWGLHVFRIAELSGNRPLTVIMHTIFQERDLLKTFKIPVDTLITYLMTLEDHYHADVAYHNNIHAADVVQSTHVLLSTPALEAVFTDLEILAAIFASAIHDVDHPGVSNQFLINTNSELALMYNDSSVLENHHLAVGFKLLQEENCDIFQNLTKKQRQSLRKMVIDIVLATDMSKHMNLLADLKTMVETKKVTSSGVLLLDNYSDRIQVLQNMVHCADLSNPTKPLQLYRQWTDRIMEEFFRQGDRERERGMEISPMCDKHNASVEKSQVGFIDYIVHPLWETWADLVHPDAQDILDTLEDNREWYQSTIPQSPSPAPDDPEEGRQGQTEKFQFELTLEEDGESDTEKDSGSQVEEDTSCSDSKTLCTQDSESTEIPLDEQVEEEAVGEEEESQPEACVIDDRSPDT
Assay type: functional

// worked examples, AC50 included
[[record]]
molecule = "OCC(CO)N[C@H]1C[C@](O)(CO)[C@@H](O)[C@H](O)[C@H]1O [VOGLIBOSE]"
parameter = "AC50"
obs_value = "> 30 µM"

[[record]]
molecule = "CC(C)(N)Cc1ccccc1 [PHENTERMINE]"
parameter = "AC50"
obs_value = "> 30 µM"

[[record]]
molecule = "CCC[C@@]1(CCc2ccccc2)CC(O)=C([C@H](CC)c2cccc(NS(=O)(=O)c3ccc(C(F)(F)F)cn3)c2)C(=O)O1"
parameter = "AC50"
obs_value = "29 µM"

[[record]]
molecule = "N=C(N)NC(=O)c1nc(Cl)c(N)nc1N [AMILORIDE]"
parameter = "AC50"
obs_value = "> 30 µM"

[[record]]
molecule = "C[C@H](Cn1cnc2c(N)ncnc21)OCP(=O)(O)O [TENOFOVIR ANHYDROUS]"
parameter = "AC50"
obs_value = "> 30 µM"


Entry CC1=C(C(=O)O)N2C(=O)[C@@H](NC(=O)[C@H](N)C3=CCC=CC3)[C@H]2SC1 [CEPHRADINE] has what AC50?
> 30 µM

Ok, now CC1CC(OC(=O)C(O)c2ccccc2)CC(C)(C)C1 (centres undefined) [CYCLANDELATE]
> 30 µM

Ok, now OCC(O)COc1ccc(Cl)cc1 (centres undefined)
> 30 µM

Ok, now C[C@]12C=CC(=O)C=C1C(Cl)=C[C@@H]1[C@@H]2[C@@H](O)C[C@@]2(C)[C@H]1CC[C@]2(O)C(=O)CO [CLOPREDNOL]
> 30 µM

Ok, now Nc1ccc(S(=O)(=O)Nc2ncccn2)cc1 [SULFADIAZINE]
> 30 µM

Ok, now N=C(N)NC(=O)Cc1c(Cl)cccc1Cl [GUANFACINE]
> 30 µM

Ok, now C[C@H](CS)C(=O)N1CCC[C@H]1C(=O)O [CAPTOPRIL]
> 30 µM

Ok, now CCOCC(O)COc1ccc(NC(=O)CC[S+](C)C)cc1 (centres undefined)
> 30 µM

----------
assayed-target: Muscarinic acetylcholine receptor M1 (Homo sapiens, UniProt P11229); note: assay procedure not described here
Sequence (P11229 whole entry): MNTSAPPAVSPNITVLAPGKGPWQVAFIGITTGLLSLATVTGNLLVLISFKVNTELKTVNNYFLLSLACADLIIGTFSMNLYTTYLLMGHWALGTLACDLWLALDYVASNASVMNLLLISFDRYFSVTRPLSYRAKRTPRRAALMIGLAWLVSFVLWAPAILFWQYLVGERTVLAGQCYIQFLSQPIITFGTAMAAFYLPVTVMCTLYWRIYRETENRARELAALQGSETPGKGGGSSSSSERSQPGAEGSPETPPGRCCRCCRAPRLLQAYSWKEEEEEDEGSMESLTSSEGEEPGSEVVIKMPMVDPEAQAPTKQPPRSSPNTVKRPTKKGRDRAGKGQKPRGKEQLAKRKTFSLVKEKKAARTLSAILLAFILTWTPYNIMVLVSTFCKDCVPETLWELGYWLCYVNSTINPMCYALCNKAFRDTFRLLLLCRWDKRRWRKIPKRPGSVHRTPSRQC
Type: functional, cell-based
parameter: AC50

// worked examples, AC50 included
[[record]]
compound = "Nc1ccn(C[C@@H](CO)OCP(=O)(O)O)c(=O)n1"
parameter = "AC50"
obs_value = "> 30 µM"

[[record]]
compound = "O=c1[nH]c(=O)n([C@H]2C[C@H](O)[C@@H](CO)O2)cc1/C=C/Br"
parameter = "AC50"
obs_value = "> 30 µM"

[[record]]
compound = "CC1=C(C/C=C(\\C)CCC[C@H](C)CCC[C@H](C)CCCC(C)C)C(=O)c2ccccc2C1=O"
parameter = "AC50"
obs_value = "> 30 µM"

[[record]]
compound = "Cc1ncc(CO)c(CO)c1O"
parameter = "AC50"
obs_value = "> 30 µM"

[[record]]
compound = "COc1cc(C[C@@H]2NCCc3cc(O)c(O)cc32)cc(OC)c1OC"
parameter = "AC50"
obs_value = "> 30 µM"

[[record]]
compound = "CCCCC(=O)O[C@H]1CC[C@H]2[C@@H]3CCc4cc(O)ccc4[C@H]3CC[C@]12C [ESTRADIOL VALERATE]"
parameter = "AC50"
obs_value = "23.1 µM"

[[record]]
compound = "COC(=O)N(C)c1c(N)nc(-c2nn(Cc3ccccc3F)c3ncccc23)nc1N"
parameter = "AC50"
obs_value = "> 30 µM"

[[record]]
compound = "Cc1cn(-c2cc(NC(=O)c3ccc(C)c(Nc4nccc(-c5cnccn5)n4)c3)cc(C(F)(F)F)c2)cn1"
parameter = "AC50"
obs_value = "> 30 µM"

[[record]]
compound = "CN1C(C(=O)Nc2ccccn2)=C(OC(=O)/C=C/c2ccccc2)c2ccccc2S1(=O)=O [PIROXICAM CINNAMATE]"
parameter = "AC50"
obs_value = "> 30 µM"

[[record]]
compound = "CC(C)(Oc1ccc(Cl)cc1)C(=O)NC(=O)NCN1CCOCC1 [PLAFIBRIDE]"
parameter = "AC50"
obs_value = "> 30 µM"


Now take the following compound into account.
Entry CCOC1O[C@H]([C@@H](COCc2ccccc2)OCc2ccccc2)[C@H](OCc2ccccc2)[C@H]1O (some centres undefined) [TRIBENOSIDE] has what AC50?
8.21 µM

----------
The compounds listed here are annotated with their AC50.
assayed-target: Muscarinic acetylcholine receptor M2 (Homo sapiens); note: assay procedure not described here
Sequence (P08172 whole entry): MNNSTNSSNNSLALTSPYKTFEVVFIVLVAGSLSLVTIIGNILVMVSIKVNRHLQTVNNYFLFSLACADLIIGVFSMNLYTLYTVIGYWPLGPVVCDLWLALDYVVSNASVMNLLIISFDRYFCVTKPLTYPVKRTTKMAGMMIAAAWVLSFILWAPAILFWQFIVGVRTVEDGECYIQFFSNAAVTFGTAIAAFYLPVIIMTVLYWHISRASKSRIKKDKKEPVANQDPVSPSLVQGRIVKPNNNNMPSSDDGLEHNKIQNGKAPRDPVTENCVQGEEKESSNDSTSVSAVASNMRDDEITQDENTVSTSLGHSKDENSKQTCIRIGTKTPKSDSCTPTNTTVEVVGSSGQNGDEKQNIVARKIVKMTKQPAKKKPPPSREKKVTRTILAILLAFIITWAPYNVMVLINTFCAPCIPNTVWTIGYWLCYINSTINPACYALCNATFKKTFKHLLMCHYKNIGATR
Type: functional, cell-based

// worked examples, AC50 included
[[record]]
compound = "CC(NC(C)(C)C)C(=O)c1cccc(Cl)c1 (configuration not stated) [BUPROPION]"
obs_value = "> 10 µM"

[[record]]
compound = "CCN(CCO)CCCC(C)Nc1ccnc2cc(Cl)ccc12 (configuration not stated) [HYDROXYCHLOROQUINE]"
obs_value = "> 10 µM"

[[record]]
compound = "CC(C(=O)O)c1ccc(C(=O)c2ccccc2)s1 (configuration not stated) [TIAPROFENIC ACID]"
obs_value = "> 10 µM"

[[record]]
compound = "CCN(CC)C(C)C(=O)c1ccccc1 (configuration not stated) [DIETHYLPROPION]"
obs_value = "> 10 µM"

[[record]]
compound = "Nc1cc(N2CCCCC2)nc(N)[n+]1[O-] [MINOXIDIL]"
obs_value = "> 10 µM"


Entry C[C@H](CS)C(=O)N1CCC[C@H]1C(=O)O [CAPTOPRIL] has what AC50?
> 10 µM

Ok, now CCOC(=O)Nc1ccc(NCc2ccc(F)cc2)nc1N [FLUPIRTINE]
> 30 µM

Ok, now CCCCOC(=O)C(=O)Nc1cccc(-c2nnn[nH]2)c1 [TAZANOLAST]
> 30 µM
